tested_target: IGF2 (Homo sapiens, UniProt P01344)
Sequence (P01344 25-91): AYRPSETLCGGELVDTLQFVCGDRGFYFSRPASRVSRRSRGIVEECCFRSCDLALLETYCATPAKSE
test_name: SPR (Biacore T200) of recombinant IGF2R domain 11 mutants on immobilised biotinylated IGF2
Format: binding
Design: purchased GroPep
assay_setup: Table 3; 25° C., HBS-EP pH 7.4
// reported Kinetics koff per item
All answers are understood in s⁻¹, so give the number only.

Study these solved cases before continuing.
molecule: AB5 P1597S: domain 11 AB5 + P1597S (protein) MKSNEHDDCQVTNPSTGHLFDLSSLSGRAGFTAAYAKGWGVYMSICGENENCPPGVGACFGQTRISVGKANKRLRYVDQVLQLVYKDGSSCPSKSGLSYKSVISFVCRPEAGPTNRPMLISLDKQTCTLFFSWHTPLACEQATECSV
Kinetics koff [s⁻¹]: 0.0193
--
molecule: AB3 P1597K: domain 11 AB3 + FG loop P1597K (protein) MKSNEHDDCQVTNPSTGHLFDLSSLSGRAGFTAAYSKSGVVYMSICGENENCPPGVGACFGQTRISVGKANKRLRYVDQVLQLVYKDGSKCPSKSGLSYKSVISFVCRPEAGPTNRPMLISLDKQTCTLFFSWHTPLACEQATECSV
Kinetics koff [s⁻¹]: 0.0287

Please examine the following record next.
Suppose we examine the molecule AB5 Q1569R P1597H S1602H G1603K: domain 11 AB5 + Q1569R, P1597H, S1602H, G1603K (protein) MKSNEHDDCQVTNPSTGHLFDLSSLSGRAGFTAAYAKGWGVYMSICGENENCPPGVGACFGRTRISVGKANKRLRYVDQVLQLVYKDGSHCPSKHKLSYKSVISFVCRPEAGPTNRPMLISLDKQTCTLFFSWHTPLACEQATECSV ; what Kinetics koff value has been reported?
0.005
